Attribution: patent US10329289B2

Answer each item with its documented pEC50.
- experimental-target: UniProt P08173
- Sequence (P08173 whole entry): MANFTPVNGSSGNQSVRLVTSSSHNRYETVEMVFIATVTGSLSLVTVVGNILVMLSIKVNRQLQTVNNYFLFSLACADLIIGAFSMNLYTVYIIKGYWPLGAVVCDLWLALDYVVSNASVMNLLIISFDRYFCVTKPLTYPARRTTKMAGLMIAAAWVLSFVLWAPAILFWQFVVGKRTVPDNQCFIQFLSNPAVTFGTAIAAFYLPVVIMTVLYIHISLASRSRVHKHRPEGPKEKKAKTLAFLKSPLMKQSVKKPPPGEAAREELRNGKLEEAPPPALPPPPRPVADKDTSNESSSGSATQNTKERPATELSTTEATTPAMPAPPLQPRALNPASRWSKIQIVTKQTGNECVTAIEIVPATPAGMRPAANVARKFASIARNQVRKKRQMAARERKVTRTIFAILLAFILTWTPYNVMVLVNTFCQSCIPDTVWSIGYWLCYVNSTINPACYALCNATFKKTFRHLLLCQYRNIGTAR
- protocol: human FLIPR-based M4 PAM assay (Ca2+ mobilization, CHO-K1 cells with human M4 receptor and Gαqi5)
- test-conditions: acetylcholine at 20% of maximum response, read-out: M4 PAM IP
Please note pEC50 is a logarithmic value: minus log10 of concentration in mol/L. Answer with that number alone.

stdin: Requested field: pEC50. Item: "Cc1c(N2CCC(Oc3ccccc3)CC2)nc2c(c1C)C(=O)N(CCO)C2"
stdout: 7.34

stdin: Requested field: pEC50. Item: CCc1cc2c(nc1N1CC[C@@H](Oc3ccc4c(cnn4C)c3)[C@@H](F)C1)CN(CCO)C2=O [Example 240A]
stdout: 6.90

stdin: Requested field: pEC50. Item: CCc1cc2c(nc1N1CC[C@H](OCC3(C)CC3)[C@@H](F)C1)CN(CCO)C2=O [Example 266E]
stdout: 6.80

stdin: Requested field: pEC50. Item: Cc1c(N2CCC(Oc3ccc4c(c3)COC4)CC2)nc2c(c1C)C(=O)N(CC(=O)O)C2 [Example 266B]
stdout: 7.28

stdin: Requested field: pEC50. Item: "Cc1ccc(OC2CCN(c3nc4c(cc3C)C(=O)NC4)CC2)cc1Cl"
stdout: 6.92

stdin: Requested field: pEC50. Item: "Cc1ccc(OC2CCN(c3nc4c(cc3C)C(=O)NC4)CC2)cc1C"
stdout: 6.83

stdin: Requested field: pEC50. Item: "Cc1c(N2CCC(OCC3(C)CC3)CC2)nc2c(c1C)C(=O)N(CCO)C2"
stdout: 7.47

stdin: Requested field: pEC50. Item: "Cc1cc2c(nc1N1CCC(Oc3ccc4c(c3)COCC4)CC1)[C@@H](CO)N(C)C2=O"
stdout: 7.66

stdin: Requested field: pEC50. Item: Cc1cc2c(nc1N1CCC(Oc3ccc([C@@H](C)O)cc3)CC1)CNC2=O (single isomer, unassigned) [Example 150A]
stdout: 6.91

stdin: Requested field: pEC50. Item: "Cc1cc2c(nc1N1CCC(Oc3ccc(N4CCC4)nc3)CC1)CNC2=O"
stdout: 6.98

stdin: Requested field: pEC50. Item: Cc1cc2c(nc1N1CC[C@@H](Oc3ccc4c(cnn4C)c3)[C@H](F)C1)CN(CCO)C2=O [Example 241A]
stdout: 7.03

stdin: Requested field: pEC50. Item: Cc1cc2c(nc1N1CCC(Oc3cccc(C#N)c3)CC1)[C@H](C)N(C)C2=O [Example 28B]
stdout: 5.70

stdin: Requested field: pEC50. Item: "CCc1cc2c(nc1N1CCC(Oc3ccc4c(c3)COC4)CC1)CNC2=O"
stdout: 7.21

stdin: Requested field: pEC50. Item: "COCCOc1ccc(OC2CCN(c3nc4c(cc3C)C(=O)NC4)CC2)cn1"
stdout: 7.10

stdin: Requested field: pEC50. Item: Cc1c(N2CCC(Oc3ccc4c(c3)COC4)CC2)nc2c(c1C)C(=O)N(C)[C@@H]2CO (single isomer, unassigned) [Example 337A]
stdout: 7.70

stdin: Requested field: pEC50. Item: CO[C@H]1Cc2ccc(OC3CCN(c4nc5c(c(C)c4C)C(=O)N(CCO)C5)CC3)cc2C1 [Example 267D]
stdout: 7.06

stdin: Requested field: pEC50. Item: "Cc1cc2c(nc1N1CC[C@@H](Oc3ccc(F)cc3)[C@@H](F)C1)CNC2=O"
stdout: 7.66
